assay: in vitro; conditions: human, hela cells, % viability
parameter.measured: viability at 28.5 h, 10 µM (%)

[
  {
    "compound": "COc1ccc(C2=NN(C(=O)CCCC(=O)O)C(c3ccc4nccnc4c3)C2)cc1OC (stereo not shown)",
    "recorded.number": 84.2
  },
  {
    "compound": "Cc1csc(Sc2nccnc2NC(C)C)n1",
    "recorded.number": 88.8
  },
  {
    "compound": "Cc1cc(Cl)ccc1OCCCC(=O)Nc1sc2c(c1C(N)=O)CCCCCC2",
    "recorded.number": 94.8
  },
  {
    "compound": "O=C(c1ccc(S(=O)(=O)N2CCCCCC2)cc1)N1CCC(CN2C(=O)c3cccc4cccc(c34)C2=O)CC1",
    "recorded.number": 98.1
  },
  {
    "compound": "Cc1ccc(CN(CCCn2ccnc2)Cc2ccccn2)o1",
    "recorded.number": 106
  },
  {
    "compound": "O=C(NCCCNC(=O)c1ccc(Br)o1)c1ccccn1",
    "recorded.number": 107
  },
  {
    "compound": "O=C(CN1CCC(NC(=O)c2cccs2)CC1)Nc1ccc(F)c(F)c1",
    "recorded.number": 83.8
  },
  {
    "compound": "COCCn1c(=O)n(Cc2ccccc2F)c2cccnc21",
    "recorded.number": 88.6
  },
  {
    "compound": "C/C(=N\\NC(=N)N)C(F)(F)F [CBK023019G]",
    "recorded.number": 90.1
  },
  {
    "compound": "CCNC(=O)N1CC(C)N(CCCCc2ccc(F)cc2)C(C)C1 (stereo not shown) [CBK025027C]",
    "recorded.number": 89.9
  }
]

---

assay: in vitro; conditions: human, hela cells, % viability
parameter.measured: viability at 28.5 h, 10 µM (%)

[
  {
    "compound": "CC1CN(CCC(=O)O)Cc2cc(Cl)ccc2O1 (centres unmarked) [CBK286899]",
    "parameter.measured": "viability at 28.5 h, 10 µM",
    "measurement.units": "%",
    "recorded.number": 103
  },
  {
    "compound": "O=C(NCCc1cccs1)Nc1ccccc1 [CBK269917]",
    "parameter.measured": "viability at 28.5 h, 10 µM",
    "measurement.units": "%",
    "recorded.number": 88.7
  },
  {
    "compound": "COc1cc(CN2CCOC3(CCN(C(=O)OCc4ccccc4)CC3)C2)cc(OC)c1OC [CBK161104T]",
    "parameter.measured": "viability at 28.5 h, 10 µM",
    "measurement.units": "%",
    "recorded.number": 79.4
  },
  {
    "compound": "CCOc1cc(NC(=O)N2CCC(Cc3cnn(C)c3)C2)ccc1C (centres unmarked) [CBK305295]",
    "parameter.measured": "viability at 28.5 h, 10 µM",
    "measurement.units": "%",
    "recorded.number": 105
  },
  {
    "compound": "CNC(=O)C1(Cc2ccccc2-c2cccs2)CCN(C(=O)Cc2cccc(C)c2)CC1 [CBK285686]",
    "parameter.measured": "viability at 28.5 h, 10 µM",
    "measurement.units": "%",
    "recorded.number": 105
  }
]

Cited source for all entries: paper PMC12040169
